test system: c-Src; assay: phosphorylation enrichment, bacterial display (enrichment ratio); higher = better substrate or ligand; peptides without Tyr show the background;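 also: 11-residue human phosphosite peptides and single-mutation variants displayed on the E. coli surface, counted by deep sequencing, each peptide's frequency after selection divided by its frequency in the unselected input library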;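 also: frequency after pTyr selection over input frequency; kinase dosed for 20-30% of maximal phosphorylation in three min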
Classes by phosphorylation enrichment: bottom bin (below 0.6), middle bin (0.6 to below 2), top bin (2 or more)

These solved cases illustrate the format of a correct answer.
# RESIDUE_CODES, DISCRETE_LABEL
rows = [
    ("VDGFVYKLHPS [GCK_Y413_S411F]", "middle bin"),
    ("AVISVYDLVVV [PSEN1_Y256_A260V]", "top bin"),
]

# input for lookup
Problem: Into which bin does this sequence go? FQKNIYSEEPR [LMNA_Y211_L215P]
Result: middle bin
